Reference source for all entries: PubChem BioAssay AID2289

The molecules listed here are annotated with their Potency.
ASSAY_NOTES: qHTS Assay for Modulators of miRNAs and/or Inhibitors of miR-21
PARTICULARS: HeLa miR-21-FLuc reporter, luciferase luminescence, 48 h; actives lower the signal
In all, about 340,000 compounds went through this assay and about 3,300 (0.97%) were called active. Not shown: some 9% with an inconclusive outcome. The list shows a part of the results.

# annotated cases, reported Potency shown
Which value of Potency has been reported for CC(=O)c1sc2nc(-c3cccs3)ccc2c1N in the records?
14.7 µM (active)

Data request, read-out Potency, for c1ccc2c(c1)oc1c(N3CCOCC3)ncnc12
16.5 µM (active)

What does the record list as Potency for Brc1ccc2oc3c(N4CCOCC4)ncnc3c2c1 ?
4.65 µM (active)

# input molecule: O=C(c1cc(COc2ccc(F)cc2F)on1)N1CCOCC1 ; wanted: its Potency
14.7 µM (active)

# lookup: Potency of CC1CCc2c(C(=O)NCc3ccccn3)csc2C1 (stereo not given)
11.7 µM (active)

Tell me the measured Potency of CN(C)S(=O)(=O)c1cccc(NC(=O)COC(=O)c2cc3ccccc3oc2=O)c1 , please.
6.56 µM (active)

New cases:
Sample COc1ccccc1NC(=O)c1csc2c1CCC(C)C2 (stereo not given) — what was its Potency?
5.85 µM (active)

Query (molecule): O=C(c1cc(COc2ccc(F)cc2F)on1)N1CCSCC1 ; field requested: Potency
5.85 µM (active)

Request the reported Potency associated with NC(=O)c1sc2nc(-c3cccs3)ccc2c1N
13.1 µM (active)

Using the record for O=C(Cn1cnc2ccccc2c1=O)c1ccc(Br)cc1 , report its Potency.
5.21 µM (active)

---

ASSAY_NOTES: qHTS Assay for Modulators of miRNAs and/or Inhibitors of miR-21
PARTICULARS: HeLa miR-21-FLuc reporter, luciferase luminescence, 48 h; actives lower the signal
From the text: MLSCN Grant: 1 R21 NS059478-01 Assay Provider: Qihong Huang, The Wistar Institute NCGC Assay Overview: MicroRNAs (miRNAs) are endogenously encoded small (~20-25 nucleotides), nonprotein-coding RNAs that are involved in post-transcriptional repression of target messenger RNAs (mRNAs) (Le and Hannon, 2004). […]
Out of some 340,000 compounds screened, about 3,300 (0.97%) were called active. Inconclusive results (about 9%) are left out. The list shows a part of the results.
REPORTED_PROPERTY: Potency

Quick check: Potency of COc1ccc(/C(N)=N/OC(=O)c2ccco2)cc1OC ?
1.85 µM (active)

***
Suppose we examine the compound CC1CCCN(C(=O)c2cc3c(=O)n4ccccc4nc3s2)C1 (stereo not drawn) ; what Potency value has been reported?
14.7 µM (active)

Need Potency, item N/C(=N\OC(=O)COc1ccccc1)c1ccccn1
5.21 µM (active)

Give its Potency value. Item: Cc1nn(-c2ccc(F)cc2)c(Cl)c1/C=N/NC(=O)c1cccs1
2.93 µM (active)

Query: Potency; subject: O=C(Nc1ccc(F)cc1)c1c(Cl)nc2ccccn12
16.5 µM (active)

Given the compound CC(=O)Nc1ccc(-c2nc3cc(Cl)ccc3o2)cc1 , what is its reported Potency?
0.369 µM (active)

Potency for Cc1ccc(SC[C@H](CC(C)C)N2CCN(C)CCC2=O)cc1 ?
10.4 µM (active)

Field request: Potency | item: Cc1ccc(SC[C@H](c2ccccc2)N2CCN(C)CCC2=O)cc1
9.27 µM (active)

So what does the record say about Potency for Cn1c(-c2cc3ccc(OC(=O)C(C)(C)C)cc3oc2=O)nc2ccccc21 ?
3.69 µM (active)

---

ASSAY_NOTES: qHTS Assay for Modulators of miRNAs and/or Inhibitors of miR-21
PARTICULARS: HeLa miR-21-FLuc reporter, luciferase luminescence, 48 h; actives lower the signal
Hit rate of the full screen: of about 340,000 compounds, about 3,300 (0.97%) were called active. Inconclusive results (about 9%) are left out. Some of the results follow.
REPORTED_PROPERTY: Potency

Below are worked cases with known answers.
What Potency value was documented for this compound, Cc1ccccc1OCC1Cc2c(nc(N)c(C#N)c2N)O1 (stereo not given) ?
14.7 µM (active)

Looking for the measured Potency of O=[N+]([O-])c1ccccc1CSc1nc2ccccc2o1 , can you help?
14.7 µM (active)

Item under review: O=C(CSc1nc(-c2ccc(F)cc2)cs1)N1CCOCC1 . Reported Potency?
6.56 µM (active)

# Potency lookup, item CC(=O)c1ccc(N/C=C\C(=O)c2ccc(C)cc2)cc1
1.31 µM (active)

Then there is this compound:
Could you share which Potency value was measured for COc1ccc(CCn2nc(C)c([N+](=O)[O-])c2C)cc1 ?
4.14 µM (active)

---

ASSAY_NOTES: qHTS Assay for Modulators of miRNAs and/or Inhibitors of miR-21
PARTICULARS: HeLa miR-21-FLuc reporter, luciferase luminescence, 48 h; actives lower the signal
Among all 340,000 compounds or so, about 3,300 (0.97%) were called active. About 9% were inconclusive and are not listed. The list shows a part of the results.
REPORTED_PROPERTY: Potency

Name the recorded Potency for Cc1ccsc1C1NC(=O)c2c(sc3c2CCCC3)N1 (stereo unspecified) .
5.85 µM (active)

# lookup: Potency of Cc1ccc(-c2ccc(/C=N/O)o2)cc1[N+](=O)[O-]
16.5 µM (active)

---

ASSAY_NOTES: qHTS Assay for Modulators of miRNAs and/or Inhibitors of miR-21; further: potency means the concentration at half of the fitted maximal effect; nearly all actives have a fitted effect of over 55% in size
PARTICULARS: HeLa miR-21-FLuc reporter, luciferase luminescence, 48 h; actives lower the signal
Among all 340,000 compounds or so, about 3,300 (0.97%) were called active. Inconclusive results (about 9%) are left out. The list shows a part of the results.
Potency listing for selected molecules.

Record excerpt, results attached:
Form field: reported Potency of NC(=O)CC1C(=O)N(c2ccccc2)C(=S)N1NC(=O)c1ccc(Br)cc1 (centres undefined)
7.36 µM (active)

// Potency lookup, key: O=C(Nc1nc2ccsc2c(=O)s1)c1ccc(F)cc1
0.414 µM (active)

Potency lookup needed for CCOC(=O)c1c(C)[nH]c2cc(Br)c(O)cc12 , thanks.
16.5 µM (active)

Shift focus to the following entry.
Recorded Potency for CCOC(=O)c1c(C)oc2c1c1c(c3ccccc32)OCN(CCCC(=O)O)C1 , please?
10.4 µM (active)

---

ASSAY_NOTES: qHTS Assay for Modulators of miRNAs and/or Inhibitors of miR-21; further: potency means the concentration at half of the fitted maximal effect; nearly all actives have a fitted effect of over 55% in size
PARTICULARS: HeLa miR-21-FLuc reporter, luciferase luminescence, 48 h; actives lower the signal
Hit rate of the full screen: of about 340,000 compounds, about 3,300 (0.97%) were called active. Roughly 9% stayed inconclusive and do not appear here. The list shows a part of the results.
REPORTED_PROPERTY: Potency

Take a look at these entries with their results.
Please report the recorded Potency for CCn1cnc2cc(NCc3ccccc3Cl)ccc21 .
11.7 µM (active)

What does the data say about its Potency? Entry: CCCCn1cnc2c(oc3ccccc32)c1=O
13.1 µM (active)

# Potency lookup, item O=C(N/N=C1\CCc2ccccc21)c1ccccc1Cl
1.85 µM (active)

Potency for Fc1ccc(/C=N/Nc2ccccn2)cc1 ?
8.26 µM (active)

Read the next record carefully.
Please report the recorded Potency for CN(c1ccccc1)S(=O)(=O)c1nnc(NC(=O)c2cccs2)s1 .
0.117 µM (active)

---

ASSAY_NOTES: qHTS Assay for Modulators of miRNAs and/or Inhibitors of miR-21; further: potency means the concentration at half of the fitted maximal effect; nearly all actives have a fitted effect of over 55% in size
PARTICULARS: HeLa miR-21-FLuc reporter, luciferase luminescence, 48 h; actives lower the signal
Hit rate of the full screen: of about 340,000 compounds, about 3,300 (0.97%) were called active. Not shown: some 9% with an inconclusive outcome. Some of the results follow.
REPORTED_PROPERTY: Potency

Which Potency reading was recorded for the compound Cc1ccc2c(Cl)c(C(=O)NCCc3ccccc3)sc2c1 ?
6.56 µM (active)

So what does the record say about Potency for CCc1ccc(O)c(-c2cc(C(=O)Nc3cccnc3)[nH]n2)c1 ?
2.33 µM (active)

# Potency lookup, item Cc1occc1C(=O)N/N=C/c1cnn(C)c1C
13.1 µM (active)

// returns reported Potency for input C/C(=N\NC(=O)c1sccc1C)c1cccnc1
4.14 µM (active)

Request the reported Potency associated with COc1ccc(-c2csc(N=C(N)N)n2)cc1
8.26 µM (active)

Find the recorded Potency belonging to Cc1ccc(O)c(-c2cc(C(=O)Nc3cccnc3)[nH]n2)c1 and report it.
2.61 µM (active)

---

ASSAY_NOTES: qHTS Assay for Modulators of miRNAs and/or Inhibitors of miR-21; further: potency means the concentration at half of the fitted maximal effect; nearly all actives have a fitted effect of over 55% in size
PARTICULARS: HeLa miR-21-FLuc reporter, luciferase luminescence, 48 h; actives lower the signal
From the text: MLSCN Grant: 1 R21 NS059478-01 Assay Provider: Qihong Huang, The Wistar Institute NCGC Assay Overview: MicroRNAs (miRNAs) are endogenously encoded small (~20-25 nucleotides), nonprotein-coding RNAs that are involved in post-transcriptional repression of target messenger RNAs (mRNAs) (Le and Hannon, 2004). […]
Out of some 340,000 compounds screened, about 3,300 (0.97%) were called active. About 9% were inconclusive and are not listed. This is one part of the list.
REPORTED_PROPERTY: Potency

Fill blank: measured Potency of the compound COc1ccc2oc(C(=O)c3ccccc3)c(N)c2c1 is ____.
1.17 µM (active)

What value of Potency has been recorded for this entry: CN1CCN(c2ccc(NC(=O)c3cc4ccccc4o3)cc2)CC1
0.927 µM (active)

// query Potency value for entry O=C(Nc1ccc(-c2nc3ncccc3o2)cc1)c1ccco1
1.85 µM (active)

More entries:
Look up Potency for this compound: Cc1ccc(NC(=O)c2ccc(=O)[nH]n2)cc1C
6.56 µM (active)

Could you tell me which Potency is on file for Cc1ccc2cc(NC(=O)Cc3ccccc3)ccc2n1 ?
2.07 µM (active)

Which measured Potency value corresponds to Cn1ccc(NC(=O)Nc2ccc(Cl)cc2Cl)n1 ?
3.69 µM (active)

Need Potency, item CCOc1ccc(-c2cc(NC(=O)Nc3ccccc3Cl)c(C(=O)OC)s2)cc1
5.85 µM (active)
